All values here come from patent US10364263B2.

runDescription: physchem
runParameters: buffer, pH 7.5, t1/2 (h) Diastereoisomer A, phosphate buffered saline, 10 mM phosphate buffer pH 7.5, 37° C.; Diastereoisomer A = upfield shift in the 31P NMR
half-life listing for selected compounds.
Please reply with the bare figure in h and do not write the unit itself.

COC(=O)CCNC(=O)[C@@H]1OP(=O)(N[C@H]2CN[C@@H](C(=O)OC)C2)OCC1(C)C (stereo partly shown) [compound 132]
4.8

Proceed to the following item.
Input line: Which half-life is reported for this compound? COC(=O)CCNC(=O)[C@@H]1OP(=O)(N[C@@H](C)C(=O)OC)OCC1(C)C (stereo partly shown) [compound 5]
Output line: 40

* * *

runDescription: Chemical stability in aqueous solution (phosphate buffered saline, NMR)
runParameters: pH 7.5, t1/2 (h) Diastereoisomer A, 10 mM phosphate buffer pH 7.5, 37° C., Diastereoisomer A = upfield shift in the 31P NMR
observable: half-life at 1 mM

Input line: Which half-life at 1 mM is reported for this compound? COC(=O)[C@H](C)NP1(=O)OCC(C)(C)[C@H](C(=O)NCCC(=O)OCc2ccncc2)O1 (stereo partly drawn)
Output line: > 80 h

Input line: Which half-life at 1 mM is reported for this compound? COC(=O)CCNC(=O)[C@@H]1OP(=O)(OCOC(=O)C(C)(C)C)OCC1(C)C (stereo partly drawn)
Output line: 40.5 h

Input line: Which half-life at 1 mM is reported for this compound? COC(=O)CCNC(=O)[C@@H]1O[P@@](=O)(OCCC(C)C)OCC1(C)C
Output line: > 80 h

* * *

runDescription: Stability in mouse hepatocytes
Assay type: in vitro ADME
runParameters: t1/2, Mouse Hepatocytes, Diastereoisomer A
observable: half-life at 5 µM

COC(=O)CCNC(=O)[C@@H]1O[P@@](=O)(OCc2ccccc2)OCC1(C)C
< 15 min
COC(=O)CCNC(=O)[C@@H]1OP(=O)(OCOC(C)=O)OCC1(C)C (some centres unmarked)
< 15 min
COC(=O)CCNC(=O)[C@@H]1OP(=O)(OC(C)OC(=O)c2ccccc2)OCC1(C)C (some centres unmarked)
< 15 min
COC(=O)CCNC(=O)[C@@H]1OP(=O)(OCOC(=O)C(C)(C)C)OCC1(C)C (some centres unmarked)
< 15 min
CCc1cc(C(=O)OCO[P@@]2(=O)OCC(C)(C)[C@H](C(=O)NCCC(=O)OC)O2)n(C)n1 (single isomer, unassigned)
< 15 min
CCC(CC)C(=O)OCOP1(=O)OCC(C)(C)[C@H](C(=O)NCCC(=O)OC)O1 (some centres unmarked)
< 15 min
COC(=O)[C@H](C)NP1(=O)OCC(C)(C)[C@H](C(=O)NCCC(=O)OCCN2CCCC2)O1 (some centres unmarked)
22.2 min
COC(=O)[C@H](C)N[P@@]1(=O)OCC(C)(C)[C@H](C(=O)NCCC(=O)OCc2cn(C)cn2)O1
37.2 min

Input line: Which half-life at 5 µM is reported for this compound? CCc1cc(C(=O)OCOP2(=O)OCC(C)(C)[C@H](C(=O)NCCC(=O)OC)O2)n(C)n1 (some centres unmarked)
Output line: < 15 min

Input line: Which half-life at 5 µM is reported for this compound? COC(=O)CCNC(=O)[C@@H]1O[P@@](=O)(OCOC(=O)C(C)(C)C)OCC1(C)C (single isomer, unassigned)
Output line: < 15 min

Input line: Which half-life at 5 µM is reported for this compound? CC(C)(C)C(=O)OCOP1(=O)OCC(C)(C)[C@H](C(=O)NCCC(=O)OCc2ccncc2)O1 (stereo in doubt)
Output line: < 15 min

* * *

half-life at 3 µM listing for selected molecules.
runDescription: Stability in human plasma
Format: in vitro ADME
runParameters: human, plasma, Diastereoisomer A (upfield shift in 31P NMR), 37° C., read-out: t1/2, Human Plasma, Diastereoisomer A (converted)

A selection of reference data follows.
CC(C)(C)C(=O)OCOP1(=O)OCC(C)(C)[C@H](C(=O)NCCC(=O)OCc2ccncc2)O1 (stereo in doubt) [Compound No. 71]
> 1 h
COC(=O)CCNC(=O)[C@@H]1OP(=O)(N[C@@H](C)C(=O)OCCN2CCOCC2)OCC1(C)C (some centres unmarked) [compound 27]
> 1 h
COC(=O)CCNC(=O)[C@@H]1O[P@](=O)(OCOC(=O)C(C)(C)C)OCC1(C)C (single isomer, unassigned) [Compound No. 89]
< 0.16 h
COC(=O)CCNC(=O)[C@@H]1OP(=O)(OCOC(=O)c2cnccn2)OCC1(C)C (some centres unmarked) [compound 86]
< 0.16 h

Proceed to the following item.
Input line: Which half-life at 3 µM is reported for this molecule? COC(=O)CCNC(=O)[C@@H]1OP(=O)(N[C@@H](C)C(=O)OCc2cc(C)cc(C)c2)OCC1(C)C (some centres unmarked) [compound 3]
Output line: > 1 h

* * *

runDescription: Chemical stability in aqueous solution (phosphate buffered saline, NMR)
runParameters: pH 7.5, half-lives, phosphate buffered saline solution, both diastereoisomers
observable: half-life at 1 mM

Input line: Which half-life at 1 mM is reported for this compound? COC(=O)CCNC(=O)[C@@H]1OP(=O)(N[C@@H](C)C(=O)OCc2ccccc2)OCC1(C)C (stereo partly shown)
Output line: > 60 h

* * *

runDescription: Stability in human hepatocytes
Type: in vitro ADME
runParameters: Diastereoisomer A (upfield shift in 31P NMR), 5 μM, 1 million cells/ml, 37° C., human hepatocytes, read-out: t1/2, Human Hepatocytes, Diastereoisomer A (converted)
Please mark t if the recorded half-life is equal to or greater than 1 h, and f if it falls below.

Check out these entries, answers already filled in.
COC(=O)CCNC(=O)[C@@H]1OP(=O)(N[C@H](C(=O)OC)C(C)C)OCC1(C)C (some centres unmarked) [compound 1]
t
COC(=O)CCNC(=O)[C@@H]1OP(=O)(NCCc2ccncc2)OCC1(C)C (some centres unmarked) [compound 111]
t

Input line: # check: half-life of COC(=O)CCNC(=O)[C@@H]1O[P@@](=O)(NCc2ccccc2)OCC1(C)C [Compound No. 115] is greater than or equal to 1 h
Output line: f

* * *

runDescription: Stability in human hepatocytes
Type: in vitro ADME
runParameters: t1/2, Human Hepatocytes, Diastereoisomer B
observable: half-life at 5 µM (min)
Please reply with the bare figure in min and do not write the unit itself.

COC(=O)[C@H](C)NP1(=O)OCC(C)(C)[C@H](C(=O)NCCC(=O)OCc2cc(C)on2)O1 (stereo partly shown) [compound 21]
40.2

Input line: Which half-life at 5 µM is reported for this compound? COC(=O)CCNC(=O)[C@@H]1OP(=O)(N[C@@H](Cc2cncs2)C(=O)OCc2ccccc2)OCC1(C)C (stereo partly shown) [compound 29]
Output line: 15.6

* * *

runDescription: Permeability in porcine brain endothelial cell blood-brain barrier model
Assay type: in vitro ADME
runParameters: pig (endothelial cells), co-cultured with rat astrocytes, pH 7.4, PBECs/As blood-brain barrier model, luminal to basal; Diastereoisomer B; read-out: Papp Diastereoisomer B
observable: Papp A→B at 60 min (×10⁻⁶ cm/s)
Please reply with the bare figure in ×10⁻⁶ cm/s and do not write the unit itself.

COC(=O)CCNC(=O)[C@@H]1OP(=O)(N[C@H](C)C(=O)OC)OCC1(C)C (stereo partly drawn) [compound 16]
4.35

Input line: Which Papp A→B at 60 min is reported for this compound? COC(=O)CCNC(=O)[C@@H]1OP(=O)(N[C@@H](C)C(=O)OCCc2ccccc2)OCC1(C)C (stereo partly drawn) [Compound No. 2]
Output line: 2.61

Input line: Which Papp A→B at 60 min is reported for this compound? COC(=O)CCNC(=O)[C@@H]1OP(=O)(N[C@@H](C)C(=O)OCc2cc(C)cc(C)c2)OCC1(C)C (stereo partly drawn) [compound 3]
Output line: 8.47

Input line: Which Papp A→B at 60 min is reported for this compound? COC(=O)CCNC(=O)[C@@H]1OP(=O)(N[C@@H](C)C(=O)OC)OCC1(C)C (stereo partly drawn) [compound 5]
Output line: 5.06

Input line: Which Papp A→B at 60 min is reported for this compound? CCc1cc(C(=O)OCOP2(=O)OCC(C)(C)[C@H](C(=O)NCCC(=O)OC)O2)n(C)n1 (stereo partly drawn) [Compound No. 84]
Output line: 14.5

Input line: Which Papp A→B at 60 min is reported for this compound? COC(=O)CCNC(=O)[C@@H]1OP(=O)(OCOC(=O)OC(C)C)OCC1(C)C (stereo partly drawn) [Compound No. 69]
Output line: 29.9

Input line: Which Papp A→B at 60 min is reported for this compound? COC(=O)CCNC(=O)[C@@H]1OP(=O)(N[C@@H](C)C(=O)OCc2ccccc2)OCC1(C)C (stereo partly drawn) [Compound No. 11]
Output line: 3.12

Input line: Which Papp A→B at 60 min is reported for this compound? COC(=O)CCNC(=O)[C@@H]1OP(=O)(N[C@@H](Cc2ccccc2)C(=O)OCc2ccccc2)OCC1(C)C (stereo partly drawn) [compound 10]
Output line: 14

Input line: Which Papp A→B at 60 min is reported for this compound? COC(=O)CCNC(=O)[C@@H]1OP(=O)(NCCC(=O)OCc2ccccc2)OCC1(C)C (stereo partly drawn) [compound 117]
Output line: 2.9
